Tested on: E. coli TESEC Alr+ wild-type control
experimentalDetails: growth (OD600 after 10 h); higher = more growth (less inhibition)
appliedConditions: compound 0.1 mM; raw OD600 reference: median of DMSO wells 0.49, cell-free background 0.052
Counter-ions that a name gives are not always drawn.
Item-by-item account of growth

compound: NCCCC(O)(P(=O)(O)O)P(=O)(O)O [Alendronate sodium]
growth: 0.514
//
compound: O=c1[nH]cc(F)c(=O)[nH]1
growth: 0.556
//
compound: CCCCC1C(=O)N(c2ccccc2)N(c2ccccc2)C1=O
growth: 0.576
//
compound: OCCOCCN1CCN(C2=Nc3ccccc3Sc3ccccc32)CC1 [Quetiapine hemifumarate]
growth: 0.486
//
compound: CC(N/C(=N\C#N)Nc1ccncc1)C(C)(C)C (centres undefined)
growth: 0.446
//
compound: CN1CCN(CCCN2c3ccccc3Sc3ccc(S(=O)(=O)N(C)C)cc32)CC1 [Thioproperazine dimesylate]
growth: 0.409
//
compound: Cc1cnc(C(=O)NCCc2ccc(S(=O)(=O)NC(=O)NC3CCCCC3)cc2)cn1 [Glipizide]
growth: 0.506
//
compound: COc1cccc2c1C(=O)c1c(O)c3c(c(O)c1C2=O)C[C@@](O)(C(=O)CO)C[C@@H]3O[C@H]1C[C@H](N)[C@@H](O)[C@H](C)O1 [Epirubicin hydrochloride]
growth: 0.0592
//
compound: Nc1ccc(S(=O)(=O)Nc2ncccn2)cc1
growth: 0.464
//
compound: CC(C(=O)O)c1ccc2c(c1)[nH]c1ccc(Cl)cc12 (centres undefined)
growth: 0.594
//
compound: CCCCOC(=O)c1ccc(O)cc1
growth: 0.399
//
compound: Cc1onc(-c2c(Cl)cccc2Cl)c1C(=O)N[C@@H]1C(=O)N2[C@@H]1SC(C)(C)[C@@H]2C(=O)O [Dicloxacillin sodium salt hydrate]
growth: 0.516
//
compound: N=C(N)NCc1cccc(I)c1 [Iobenguane sulfate]
growth: 0.488
//
compound: CS(=O)(=O)OCCCCOS(C)(=O)=O
growth: 0.445
//
compound: CCOc1ccc2nc(S(N)(=O)=O)sc2c1 [Ethoxzolamide]
growth: 0.552
//
compound: CCN(CC)CCOC(=O)c1ccc(N)cc1 [Procaine hydrochloride]
growth: 0.52
//
compound: CN(C)CCCN1c2ccccc2Sc2ccc(C(F)(F)F)cc21 [Triflupromazine hydrochloride]
growth: 0.049
//
compound: CC(C)c1ccc2oc3nc(N)c(C(=O)O)cc3c(=O)c2c1
growth: 0.416
//
compound: CCCc1cc(C(N)=S)ccn1 [Prothionamide]
growth: 0.57

---

Tested on: E. coli TESEC Mtb Alr
experimentalDetails: growth (OD600 after 10 h); higher = more growth (less inhibition)
appliedConditions: arabinose 10000000 nM; compound 0.1 mM; raw OD600 reference: median of DMSO wells […], cell-free background 0.052
Counter-ions that a name gives are not always drawn.

molecule: Cc1ccc(O)c([C@H](CCN(C(C)C)C(C)C)c2ccccc2)c1 [Tolterodine tartrate]
growth: 0.3
--
molecule: CCOC(=O)[C@H](CCc1ccccc1)N[C@@H](C)C(=O)N1Cc2ccccc2C[C@H]1C(=O)O [Quinapril HCl]
growth: 0.309
--
molecule: CC(c1cc2ccccc2s1)N(O)C(N)=O (stereo not given) [Zileuton]
growth: 0.341
--
molecule: C[C@@H]1NC(=O)NC1=O [Methylhydantoin-5-(L)]
growth: 0.352
--
molecule: CC(C)NC[C@@H](O)COc1cccc2ccccc12 [(R)-Propranolol hydrochloride]
growth: 0.326

---

Tested on: E. coli TESEC Mtb DapB
experimentalDetails: growth (OD600 after 10 h); higher = more growth (less inhibition)
appliedConditions: arabinose induction (level): Low; compound 0.1 mM; raw OD600 reference: median of DMSO wells 0.227, cell-free background 0.041
Structures can show the parent of a compound that is named as a salt.
measuredProperty: growth

molecule: CCCCOc1cc(C(=O)OCCN(CC)CC)ccc1N [Benoxinate hydrochloride]
testSystem: E. coli TESEC Mtb DapB
measuredProperty: growth
quantitativeResult: 0.21
--
molecule: c1ccc([C@H]2CN3CCSC3=N2)cc1 [Levamisole hydrochloride]
testSystem: E. coli TESEC Mtb DapB
measuredProperty: growth
quantitativeResult: 0.214
--
molecule: CN1CCCC(CC2c3ccccc3Sc3ccccc32)C1 (centres undefined) [Metixene hydrochloride]
testSystem: E. coli TESEC Mtb DapB
measuredProperty: growth
quantitativeResult: 0.0594
--
molecule: CC(=O)O[C@]1(C(C)=O)CC[C@H]2[C@@H]3C=C(Cl)C4=CC(=O)[C@@H]5C[C@@H]5[C@]4(C)[C@H]3CC[C@@]21C [Cyproterone acetate]
testSystem: E. coli TESEC Mtb DapB
measuredProperty: growth
quantitativeResult: 0.131

---

System: E. coli TESEC Mtb Asd
experimentalDetails: growth (OD600 after 10 h); higher = more growth (less inhibition)
appliedConditions: arabinose induction (level): High; compound 0.1 mM; raw OD600 reference: median of DMSO wells 0.331, cell-free background 0.041
Where a name gives a salt, the structure may show the parent alone.
Returns one of 1 or -1; 1 when growth is >= 0.3.

molecule: CC(C)NC[C@@H](O)COc1cccc2ccccc12 [(R)-Propranolol hydrochloride]
testSystem: E. coli TESEC Mtb Asd
categoryLabel: -1
--
molecule: Cn1ccnc1S
testSystem: E. coli TESEC Mtb Asd
categoryLabel: 1
--
molecule: Nc1ncnc2c1ncn2C1OC(COP(=O)(O)O)C(O)C1O (centres undefined) [Adenosine 5'-monophosphate monohydrate]
testSystem: E. coli TESEC Mtb Asd
categoryLabel: -1
--
molecule: CN(C)CCOC(c1ccccc1)c1ccccc1 [Diphenhydramine hydrochloride]
testSystem: E. coli TESEC Mtb Asd
categoryLabel: -1
--
molecule: O=C1c2ccccc2C(=O)C1c1ccccc1
testSystem: E. coli TESEC Mtb Asd
categoryLabel: -1
--
molecule: C[C@H](CS)C(=O)N1CCC[C@H]1C(=O)O
testSystem: E. coli TESEC Mtb Asd
categoryLabel: 1
--
molecule: CC1CC(OC(=O)c2ccccc2O)CC(C)(C)C1 (centres undefined) [Homosalate]
testSystem: E. coli TESEC Mtb Asd
categoryLabel: -1
--
molecule: Cc1c(NC(C)C)c(=O)n(-c2ccccc2)n1C [Isopyrin hydrochloride]
testSystem: E. coli TESEC Mtb Asd
categoryLabel: -1

---

System: E. coli TESEC Mtb Alr
experimentalDetails: growth (OD600 after 10 h); higher = more growth (less inhibition)
appliedConditions: arabinose 1000 nM; compound 0.1 mM; raw OD600 reference: median of DMSO wells 0.294, cell-free background 0.041
Structures can show the parent of a compound that is named as a salt.

molecule: CN[C@H]1CC[C@@H](c2ccc(Cl)c(Cl)c2)c2ccccc21
growth: 0.0417
--
molecule: N=C(N)NC(=O)Cc1c(Cl)cccc1Cl [Guanfacine hydrochloride]
growth: 0.287
--
molecule: C#C[C@]1(O)CC[C@H]2[C@@H]3CCC4=CCCC[C@@H]4[C@H]3CC[C@@]21C
growth: 0.297
--
molecule: NC(=O)NC1NC(=O)NC1=O (stereo not drawn)
growth: 0.281
--
molecule: Oc1c(Cl)cc(Cl)c2cccnc12
growth: 0.0429
--
molecule: CCC(C)n1ncn(-c2ccc(N3CCN(c4ccc(OCC5COC(Cn6cncn6)(c6ccc(Cl)cc6Cl)O5)cc4)CC3)cc2)c1=O (stereo not drawn)
growth: 0.321
--
molecule: CC[C@H]1OC(=O)[C@H](C)[C@@H](O[C@H]2C[C@@](C)(OC)[C@@H](O)[C@H](C)O2)[C@H](C)[C@@H](O[C@@H]2O[C@H](C)C[C@H](N(C)C)[C@H]2O)[C@](C)(O)C[C@@H](C)CN(C)[C@H](C)[C@@H](O)[C@]1(C)O
growth: 0.0419
--
molecule: CCCCC(=O)N(Cc1ccc(-c2ccccc2-c2nnn[nH]2)cc1)[C@H](C(=O)O)C(C)C
growth: 0.307

---

System: E. coli TESEC Alr+ wild-type control
experimentalDetails: growth (OD600 after 10 h); higher = more growth (less inhibition)
appliedConditions: compound 0.1 mM; raw OD600 reference: median of DMSO wells 0.49, cell-free background 0.052
Where a name gives a salt, the structure may show the parent alone.
Item-by-item account of growth

compound: CC(C)(O)c1ccccc1CC[C@@H](SCC1(CC(=O)O)CC1)c1cccc(/C=C/c2ccc3ccc(Cl)cc3n2)c1
growth: 0.566

compound: CC(=O)/N=c1/sc(S(N)(=O)=O)nn1C [Methazolamide]
growth: 0.438

compound: CCn1cc(C(=O)O)c(=O)c2cnc(N3CCNCC3)nc21
growth: 0.158

compound: Oc1ncnc2[nH]ncc12
growth: 0.53

compound: CN1CCc2cccc3c2[C@H]1Cc1ccc(O)c(O)c1-3 [R(-) Apomorphine hydrochloride hemihydrate]
growth: 0.467

compound: NC(=O)OCC(O)COc1ccc(Cl)cc1 (stereo not drawn) [Chlorphensin carbamate]
growth: 0.523

compound: CC1CC(OC(=O)c2ccccc2O)CC(C)(C)C1 (stereo not drawn) [Homosalate]
growth: 0.543

compound: Cc1[nH]cnc1CN1CCc2c(c3ccccc3n2C)C1=O [Alosetron hydrochloride]
growth: 0.563

compound: C#C[C@]1(O)CC[C@H]2[C@@H]3CCC4=CC(=O)CC[C@@H]4[C@H]3CC[C@@]21CC [Norgestrel-(-)-D]
growth: 0.517

compound: CC(=O)OCC(=O)[C@@]12N=C(C)O[C@@H]1C[C@H]1[C@@H]3CCC4=CC(=O)C=C[C@]4(C)[C@H]3[C@@H](O)C[C@@]12C
growth: 0.48

compound: CCCCC(=O)N(Cc1ccc(-c2ccccc2-c2nnn[nH]2)cc1)[C@H](C(=O)O)C(C)C
growth: 0.557

compound: C=CCSCC1Nc2cc(Cl)c(S(N)(=O)=O)cc2S(=O)(=O)N1 (stereo not drawn) [Althiazide]
growth: 0.444

compound: CCSc1ccc2c(c1)N(CCCN1CCN(C)CC1)c1ccccc1S2 [Thiethylperazine dimalate]
growth: 0.0499

compound: C=CCOc1ccccc1OCC(O)CNC(C)C (stereo not drawn) [Oxprenolol hydrochloride]
growth: 0.554

compound: CC(=O)Oc1cccc2c1C(=O)c1c(OC(C)=O)cc(C(=O)O)cc1C2=O
growth: 0.087

compound: COc1cc([C@@H]2c3cc4c(cc3[C@@H](O[C@@H]3O[C@@H]5CO[C@@H](C)O[C@H]5[C@H](O)[C@H]3O)[C@H]3COC(=O)[C@H]23)OCO4)cc(OC)c1O [Etoposide]
growth: 0.142

compound: CCCCOc1cc(C(=O)NCCN(CC)CC)c2ccccc2n1
growth: 0.452

compound: Clc1ccccc1C(c1ccccc1)(c1ccccc1)n1ccnc1
growth: 0.0507

compound: CCCCC1=NC2(CCCC2)C(=O)N1Cc1ccc(-c2ccccc2-c2nnn[nH]2)cc1
growth: 0.528

compound: CC=CC(=O)N(CC)c1ccccc1C
growth: 0.489

compound: CCN1CCCC(OC(=O)C(c2ccccc2)c2ccccc2)C1 (stereo not drawn) [Piperidolate hydrochloride]
growth: 0.555

compound: CC1(C)O[C@@H]2C[C@H]3[C@@H]4CCC5=CC(=O)CC[C@]5(C)[C@@]4(F)[C@@H](O)C[C@]3(C)[C@]2(C(=O)CCl)O1 [Halcinonide]
growth: 0.442

compound: C[C@@H]1C[C@H]2[C@@H]3C[C@H](F)C4=CC(=O)C=C[C@]4(C)[C@@]3(F)[C@@H](O)C[C@]2(C)[C@@]1(O)C(=O)CO
growth: 0.543

compound: NCCCC[C@H](N[C@@H](CCc1ccccc1)C(=O)O)C(=O)N1CCC[C@H]1C(=O)O
growth: 0.49

compound: CCCCCCNC(=O)n1cc(F)c(=O)[nH]c1=O
growth: 0.508

compound: CCCCNC(=O)NS(=O)(=O)c1ccc(C)cc1 [Tolbutamide]
growth: 0.521

compound: Cc1nc2ccccn2c(=O)c1CCN1CCC(C(=O)c2ccc(F)cc2)CC1
growth: 0.469

compound: OC(CCN1CCCC1)(c1ccccc1)C1CCCCC1 (stereo not drawn) [Procyclidine hydrochloride]
growth: 0.573

compound: CN1CCCCC1CCN1c2ccccc2Sc2ccc([S+](C)[O-])cc21 (stereo not drawn) [Mesoridazine besylate]
growth: 0.568

compound: C[n+]1ccccc1/C=N/O [Pralidoxime chloride]
growth: 0.605

compound: CC(C)(S)C(N)C(=O)O (racemic)
growth: 0.437

compound: COC(=O)C1=C(C)NC(C)=C(C(=O)OC2CCCN(Cc3ccccc3)C2)C1c1cccc([N+](=O)[O-])c1 (stereo not drawn) [Benidipine hydrochloride]
growth: 0.295

compound: C=C1c2cccc(O)c2C(O)=C2C(=O)[C@]3(O)C(O)=C(C(N)=O)C(=O)[C@@H](N(C)C)[C@@H]3[C@@H](O)[C@H]12 [Methacycline hydrochloride]
growth: 0.0598
